- assay-explanation: Dose normalized AUC (0 to 24 hrs) in Balb/c mouse at 3 mg/kg, po administered as cassette dosing
- Format: ADME, organism-based
- measurement-conditions: in vivo
quantity: AUC/dose (nM·h)

> print(dat)
                               given.smiles  quantity  unit.descriptor  reported.result
1  C[C@H]1COC[C@H](C)N1c1c(NC(=O)Nc2ccnc(C(F)(F)F)c2)cnc2cc(Cl)nn12  AUC/dose             nM·h             3100

---

- assay-explanation: Clearance in Balb/c mouse at 1 mg/kg, iv administered as cassette dosing
- Assay type: ADME, organism-based
- measurement-conditions: in vivo
quantity: clearance (L/h/kg)

> print(dat)
                               given.smiles  reported.result
1  C[C@H]1COC[C@H](C)N1c1c(NC(=O)Nc2ccnc(C(F)(F)F)c2)cnc2cc(Cl)nn12             0.66

---

- assay-explanation: Drug concentration in Balb/c mouse blood at 30 mg/kg, po BID administered at 12 hrs interval immunized post 1 hr first treatment measured after 12 hrs post second dose by LC-MS/MS analysis
- Assay type: ADME, organism-based
- measurement-conditions: whole blood, read-out: Drug uptake
quantity: concentration at 12 h (nM)

> print(dat)
                               given.smiles  reported.result
1  C[C@H]1COC[C@H](C)N1c1c(NC(=O)Nc2ccnc(C(F)(F)F)c2)cnc2cc(Cl)nn12              120

---

microsomal CLint values for the molecules below.
- assay-explanation: Intrinsic clearance in rat liver microsomes
- Assay type: ADME, Microsome
- measurement-conditions: read-out: CLH
quantity: microsomal CLint (µL/min/mg)

> print(dat)
                               given.smiles  unit.descriptor  reported.result
1  COc1ncc(NC(=O)Nc2cnc3ccc(C#N)cc3c2N2CCOC[C@@H]2C)cc1Cl        µL/min/mg              3.4
2  C[C@H]1COC[C@H](C)N1c1c(NC(=O)Nc2ccnc(C(F)(F)F)c2)cnc2cc(Cl)nn12        µL/min/mg               42

---

- assay-explanation: Tmax in human TMD8 cells xenografted SCID mouse at 100 mg/kg, po qd by UPLC-MS/MS analysis
- Type: ADME, organism-based
- measurement-conditions: in vivo
quantity: Tmax (h)

> print(dat)
                               given.smiles  reported.result
1  C[C@H]1COC[C@H](C)N1c1c(NC(=O)Nc2ccnc(C(F)(F)F)c2)cnc2cc(Cl)nn12                2

---

- assay-explanation: Oral bioavailability in Sprague-Dawley rat at 3 mg/kg administered as cassette dosing
- Format: ADME, organism-based
- measurement-conditions: in vivo
quantity: bioavailability

> print(dat)
                               given.smiles  reported.result
1  C[C@H]1COC[C@H](C)N1c1c(NC(=O)Nc2ccnc(C(F)(F)F)c2)cnc2cc(Cl)nn12              61%

---

- assay-explanation: Dose normalized AUC in Sprague-Dawley rat at 3 mg/kg, po administered as MCT suspension
- Type: ADME, organism-based
- measurement-conditions: in vivo
quantity: AUC/dose (nM·h)

> print(dat)
                               given.smiles  unit.descriptor  reported.result
1  COc1ncc(NC(=O)Nc2cnc3ccc(C#N)cc3c2N2CCOC[C@@H]2C)cc1Cl             nM·h              103

---

- assay-explanation: Solubility of the compound at pH 6.8
- Format: physicochemical
- measurement-conditions: buffer
solubility values for the compounds below.
quantity: solubility

> print(dat)
                               given.smiles  reported.result
1  C[C@H]1COC[C@H](C)N1c1c(NC(=O)Nc2ccnc(C(F)(F)F)c2)cnc2cc(Cl)nn12           266 µM
2  COc1ncc(NC(=O)Nc2cnc3ccc(C#N)cc3c2N(C)C2CCOCC2)cc1Cl           < 4 µM
3   COc1ccc(NC(=O)Nc2cnc3ccc(Br)cc3c2)cc1Cl           < 4 µM

---

- assay-explanation: Terminal half-life in Sprague-Dawley rat at 1 mg/kg, iv administered as bolus dose
- Assay type: ADME, organism-based
- measurement-conditions: in vivo, read-out: beta t1/2 (converted)
quantity: half-life (min)

> print(dat)
                               given.smiles  reported.result
1  COc1ncc(NC(=O)Nc2cnc3ccc(C#N)cc3c2N2CCOC[C@@H]2C)cc1Cl              126

---

- assay-explanation: Drug concentration in Balb/c mouse blood at 10 mg/kg, po BID administered at 12 hrs interval immunized post 1 hr first treatment measured after 12 hrs post second dose by LC-MS/MS analysis
- Type: ADME, organism-based
- measurement-conditions: whole blood, read-out: Drug uptake
quantity: concentration at 12 h

> print(dat)
                               given.smiles  reported.result
1  C[C@H]1COC[C@H](C)N1c1c(NC(=O)Nc2ccnc(C(F)(F)F)c2)cnc2cc(Cl)nn12            40 nM

---

- assay-explanation: Lipophilicity, log D of the compound at pH 7.4
- Format: physicochemical
- measurement-conditions: buffer
quantity: logD

> print(dat)
                               given.smiles  reported.result
1  COc1ncc(NC(=O)Nc2cnc3ccc(C#N)cc3c2N2CCOC[C@@H]2C)cc1Cl              3.8

---

- assay-explanation: Solubility of the compound at pH 6.8
- Format: physicochemical
- measurement-conditions: buffer
solubility values for the compounds below.
quantity: solubility (µM)

> print(dat)
                                   compound    quantity  unit.descriptor  inequality.symbol  reported.result
1  COc1ccc(NC(=O)Nc2cnc3ccc(Br)cc3c2Cl)cc1Cl  solubility               µM                  <                4
2  COc1ncc(NC(=O)Nc2cnc3ccc(F)cc3c2N(C)C2CCCN(C)C2)cc1Cl (stereo not given)  solubility               µM                  =               61
3  CC1(C)COCCN1c1c(NC(=O)Nc2ccnc(C(F)(F)F)c2)cnc2cc(Cl)nn12  solubility               µM                  =                8
4  COc1ccc(NC(=O)Nc2cnc3ccc(C#N)cc3c2N2CCOC[C@@H]2C)cc1Cl  solubility               µM                  <                4
5  COc1ccc(NC(=O)Nc2cnc3ccc(C#N)cc3c2N(C)C2CCOCC2)cc1Cl  solubility               µM                  =               27

---

- assay-explanation: Drug concentration in Balb/c mouse blood at 30 mg/kg, po BID by LC-MS/MS analysis
- Format: ADME, organism-based
- measurement-conditions: in vivo, read-out: Drug uptake
quantity: concentration (µM)

> print(dat)
                               given.smiles       quantity  reported.result
1  C[C@H]1COC[C@H](C)N1c1c(NC(=O)Nc2ccnc(C(F)(F)F)c2)cnc2cc(Cl)nn12  concentration              9.3

---

- assay-explanation: Volume of distribution at steady state in Sprague-Dawley rat at 1 mg/kg, iv administered as bolus dose
- Assay type: ADME, organism-based
- measurement-conditions: in vivo, read-out: Vdss
quantity: Vd

> print(dat)
                               given.smiles  quantity  reported.result
1  COc1ncc(NC(=O)Nc2cnc3ccc(C#N)cc3c2N2CCOC[C@@H]2C)cc1Cl        Vd         4.8 L/kg

---

- assay-explanation: Volume of distribution at steady state in Balb/c mouse at 1 mg/kg, iv administered as cassette dosing
- Assay type: ADME, organism-based
- measurement-conditions: in vivo, read-out: Vdss
quantity: Vd (L/kg)

> print(dat)
                               given.smiles  quantity  reported.result
1  C[C@H]1COC[C@H](C)N1c1c(NC(=O)Nc2ccnc(C(F)(F)F)c2)cnc2cc(Cl)nn12        Vd              1.5

---

- assay-explanation: Oral bioavailability in Balb/c mouse at 3 mg/kg administered as cassette dosing
- Assay type: ADME, organism-based
- measurement-conditions: in vivo
quantity: bioavailability (%)

> print(dat)
                               given.smiles  reported.result
1  C[C@H]1COC[C@H](C)N1c1c(NC(=O)Nc2ccnc(C(F)(F)F)c2)cnc2cc(Cl)nn12               99

Reference source: ChEMBL document CHEMBL4673331
